meta.source: PubChem BioAssay (Tox21)

assay.info: qHTS assay to identify small molecule agonists of the androgen receptor (AR) signaling pathway in the presence of an antagonist - cell viability counter screen (AID 1259379); also: nearly all actives have a fitted effect of over 25% in size
conditions: MDA-kb2 viability, CellTiter-Fluor, 16 h; series mostly up to 92.4 µM
Records with an inconclusive call do not appear. The source made the active and inactive calls. Calls follow the shape of the dose curve; as a rule, active = well fitted cell-killing curve with a large enough effect in the repeat runs; inconclusive = weak or mixed curves, or effect the other way; inactive = flat fitted curve, though single readings scatter.
Answer with one of the outcomes t for active, f for inactive

stdin: Outcome logged for Cc1ccc(O)c(C(C)(C)C)c1 in this assay:
stdout: f

stdin: Outcome logged for N/C(=N\N=C\c1ccc(Cl)cc1)N/N=C/c1ccc(Cl)cc1 in this assay:
stdout: t

stdin: Outcome logged for NC(=O)NS(=O)(=O)c1ccc(N)cc1 in this assay:
stdout: f

stdin: Outcome logged for Oc1ccc(N=Nc2ccccc2)cc1 in this assay:
stdout: t

stdin: Outcome logged for Cc1ccc2oc(CN(Cc3ccccc3)C(=O)Nc3c(F)cc(F)cc3F)c(-c3ccc(Cl)cc3)c2c1 in this assay:
stdout: f

stdin: Outcome logged for CC[C@H]1O[C@]2(CC[C@@H]1C)C[C@@H]1C[C@@H](C/C=C(\C)C[C@@H](C)/C=C/C=C3\CO[C@@H]4[C@H](O)C(C)=C[C@@H](C(=O)O1)[C@]34O)O2 in this assay:
stdout: t

stdin: Outcome logged for CCCC/C=C/CCCCO in this assay:
stdout: f

stdin: Outcome logged for O=C(OCC(COC(=O)c1ccccc1)(COC(=O)c1ccccc1)COC(=O)c1ccccc1)c1ccccc1 in this assay:
stdout: f

stdin: Outcome logged for CCCCCCCCCCCCCCCCCC[N+](C)(C)Cc1ccccc1 in this assay:
stdout: t

stdin: Outcome logged for [Cl][Au]([Cl])[Cl] in this assay:
stdout: t

stdin: Outcome logged for CC1=NC(C)OC1C (stereo not drawn) in this assay:
stdout: f

stdin: Outcome logged for C/C(=C(/OCCOc1ccc(Cl)cc1)c1ccc(Cl)cc1Cl)n1ccnc1 in this assay:
stdout: f

stdin: Outcome logged for c1ccc(CSCc2ccccc2)cc1 in this assay:
stdout: f

stdin: Outcome logged for CCCC(c1cc(C(C)(C)C)c(O)cc1C)c1cc(C(C)(C)C)c(O)cc1C in this assay:
stdout: t

stdin: Outcome logged for CC(C)C(C)(C)C(C)(C)C(C)(C)S in this assay:
stdout: f

stdin: Outcome logged for CCN(CC)CCNC(=O)c1c(C)[nH]c(/C=C2\C(=O)Nc3ccc(F)cc32)c1C in this assay:
stdout: t

stdin: Outcome logged for CC(C)OC(=O)c1cc2c(OCC(O)CNC(C)(C)C)cccc2[nH]1 (stereo not drawn) in this assay:
stdout: f

stdin: Outcome logged for CC(C)(C)c1ccc(C(=O)CCCN2CCC(OC(c3ccccc3)c3ccccc3)CC2)cc1 in this assay:
stdout: t

stdin: Outcome logged for CCCCCCCC[P+](CCCCCCCC)(CCCCCCCC)CCCCCCCC in this assay:
stdout: t

stdin: Outcome logged for CC(C)(C)C1CCC(CC2=C(O)c3ccccc3C(=O)C2=O)CC1 (stereo not drawn) in this assay:
stdout: t

stdin: Outcome logged for CCC(C)(C)C1CCCCC1OC(C)=O (stereo not drawn) in this assay:
stdout: f

stdin: Outcome logged for C/C=C1/C(=O)C[C@H]2[C@@H]3CCC4=CC(=O)CC[C@]4(C)[C@H]3CC[C@]12C in this assay:
stdout: t

stdin: Outcome logged for Oc1cc2ccccc2c2ccccc12 in this assay:
stdout: t

----------
measured.target: Thyrotropin receptor (Homo sapiens) (UniProt P16473)
Sequence (P16473 whole entry, looked up): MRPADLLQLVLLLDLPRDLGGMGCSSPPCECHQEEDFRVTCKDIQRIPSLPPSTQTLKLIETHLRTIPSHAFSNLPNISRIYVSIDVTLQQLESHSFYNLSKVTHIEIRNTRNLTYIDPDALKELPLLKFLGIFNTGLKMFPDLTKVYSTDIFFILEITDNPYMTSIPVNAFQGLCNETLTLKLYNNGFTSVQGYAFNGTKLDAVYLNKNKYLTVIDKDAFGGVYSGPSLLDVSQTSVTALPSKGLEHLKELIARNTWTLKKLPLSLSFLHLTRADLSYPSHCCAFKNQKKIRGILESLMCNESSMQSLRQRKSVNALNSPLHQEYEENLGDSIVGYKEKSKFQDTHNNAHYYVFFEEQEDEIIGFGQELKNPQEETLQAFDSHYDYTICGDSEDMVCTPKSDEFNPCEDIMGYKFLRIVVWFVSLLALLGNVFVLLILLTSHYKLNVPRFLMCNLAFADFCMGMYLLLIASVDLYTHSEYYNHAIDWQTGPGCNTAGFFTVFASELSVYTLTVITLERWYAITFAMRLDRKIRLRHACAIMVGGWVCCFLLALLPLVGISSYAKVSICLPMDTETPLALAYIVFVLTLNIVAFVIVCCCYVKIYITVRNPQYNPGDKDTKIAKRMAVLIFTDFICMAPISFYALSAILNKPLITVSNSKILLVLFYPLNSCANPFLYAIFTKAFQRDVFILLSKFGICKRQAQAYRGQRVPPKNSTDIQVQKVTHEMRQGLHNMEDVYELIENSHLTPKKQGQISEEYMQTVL
assay.info: qHTS assay to identify small molecule antagonists of the thyroid stimulating hormone receptor (TSHR) signaling pathway (AID 1259385); also: nearly all actives have a fitted effect of over 20% in size
conditions: TSHR-HEK293 cAMP HTRF, TSH-stimulated antagonist mode; series mostly up to 92.4 µM
Results filed as inconclusive are left out. Calls of active or inactive are those of the source. The call rests on the fitted dose curve.
Answer with one of the outcomes active, inactive

stdin: Outcome logged for CCN(C(=O)c1cc(C)cc(OC[C@H](C)Nc2ccncc2)c1)C(C)C in this assay:
stdout: inactive

stdin: Outcome logged for CCCCCCCCCCCCCCCCCC[N+](C)(C)C in this assay:
stdout: inactive

stdin: Outcome logged for Cc1onc(-c2ccccc2Cl)c1C(=O)N[C@@H]1C(=O)N2[C@@H]1SC(C)(C)[C@@H]2C(=O)O in this assay:
stdout: inactive

stdin: Outcome logged for O=C(Nc1cccc(C(F)(F)F)c1)c1cc(Br)cc(Br)c1O in this assay:
stdout: inactive

stdin: Outcome logged for CCCCCCOC(=O)c1ccc(O)cc1 in this assay:
stdout: inactive

stdin: Outcome logged for Cc1cc(N)c(S(=O)(=O)O)cc1Cl in this assay:
stdout: inactive

stdin: Outcome logged for Cc1c(C)c2c(c(C)c1O)CCC(C)(COc1ccc(CC3SC(=O)NC3=O)cc1)O2 (stereo unspecified) in this assay:
stdout: inactive

stdin: Outcome logged for CC1=NC(C)OC1C (stereo unspecified) in this assay:
stdout: inactive

stdin: Outcome logged for CCCCc1oc2ccc(NS(C)(=O)=O)cc2c1C(=O)c1ccc(OCCCN(CCCC)CCCC)cc1 in this assay:
stdout: active

stdin: Outcome logged for CC[C@@]1(O)C(=O)OCc2c1cc1n(c2=O)Cc2c-1nc1ccccc1c2/C=N/OC(C)(C)C in this assay:
stdout: active

stdin: Outcome logged for CCC(Cl)C(Cl)C(Cl)CC(Cl)C(Cl)C(C)Cl (stereo unspecified) in this assay:
stdout: inactive
